Where do these numbers come from? They come from patent US11046649B2.

- subject-of-test: IDO1 (Homo sapiens, UniProt P14902)
- Construct: endogenous in cells
- Sequence (P14902 whole entry): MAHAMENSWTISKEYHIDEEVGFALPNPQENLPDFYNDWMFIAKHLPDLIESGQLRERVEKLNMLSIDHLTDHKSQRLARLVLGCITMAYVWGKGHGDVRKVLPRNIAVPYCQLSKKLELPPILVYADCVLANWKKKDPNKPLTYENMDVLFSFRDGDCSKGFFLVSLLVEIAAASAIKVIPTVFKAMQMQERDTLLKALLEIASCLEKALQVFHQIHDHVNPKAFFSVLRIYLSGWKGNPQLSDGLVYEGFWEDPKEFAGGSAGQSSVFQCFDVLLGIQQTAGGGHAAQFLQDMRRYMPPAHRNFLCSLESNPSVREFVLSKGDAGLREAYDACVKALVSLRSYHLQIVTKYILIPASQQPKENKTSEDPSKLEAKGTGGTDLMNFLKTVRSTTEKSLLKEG
- protocol-summary: IDO1 cell-based assay
- conditions: HeLa cells, 10 ng/mL IFNgamma, 24 hours with test compound; N-Formyl Kynurenine and L-tryptophan quantified by RFMS
Recorded log10(IC50), one value per entry.
readout-label: log10(IC50) (log10 of the value in nM)

molecule=C[C@H](C(=O)Nc1ccc(-c2cnc[nH]2)cc1)[C@H]1[C@@H]2C[C@@H](n3cnc4cc(F)c(F)cc43)C[C@@H]21 readout_label=log10(IC50) measured_value=2.74
molecule="CC(C(=O)Nc1cnn(C(F)F)c1)[C@H]1[C@@H]2C[C@@H](n3cnc4cc(F)c(F)cc43)C[C@@H]21 (stereo partly drawn)" readout_label=log10(IC50) measured_value=1.15
molecule="CC(C(=O)Nc1ccc(Cl)cn1)[C@H]1[C@@H]2C[C@@H](n3cnc4cc(F)c(F)cc43)C[C@@H]21 (stereo partly drawn)" readout_label=log10(IC50) measured_value=0.40
molecule="Cc1ccc(NC(=O)C(C)[C@H]2[C@@H]3C[C@@H](n4cnc5cc(F)c(F)cc54)C[C@@H]32)nc1 (stereo partly drawn)" readout_label=log10(IC50) measured_value=1.04
molecule=CC(C)n1cc(-c2ccc(NC(=O)[C@@H](C)[C@H]3[C@@H]4C[C@@H](n5cnc6cc(F)c(F)cc65)C[C@@H]43)cc2)cn1 readout_label=log10(IC50) measured_value=2.70
molecule="Cc1cnc(NC(=O)C(C)[C@H]2[C@@H]3C[C@@H](n4cnc5cc(F)c(F)cc54)C[C@@H]32)cn1 (stereo partly drawn)" readout_label=log10(IC50) measured_value=1.02
molecule="CC(C(=O)NC1CCC(F)(F)C1)[C@H]1[C@@H]2C[C@@H](n3cnc4cc(F)c(F)cc43)C[C@@H]21 (stereo partly drawn)" readout_label=log10(IC50) measured_value=2.46
molecule="CC(C(=O)Nc1ccc(C2CC2)nc1)[C@H]1[C@@H]2C[C@@H](Oc3ccnc4ccc(F)cc34)C[C@@H]21 (stereo partly drawn)" readout_label=log10(IC50) measured_value=0.15
molecule="CC(c1nc2cc(C(F)(F)F)ccc2[nH]1)[C@H]1[C@@H]2C[C@@H](Oc3ccnc4ccc(F)cc34)C[C@@H]21 (stereo partly drawn)" readout_label=log10(IC50) measured_value=0.08
molecule=O=C(N[C@H](C1CC1)[C@H]1[C@@H]2C[C@@H](Oc3ccnc4ccc(F)cc34)C[C@@H]21)c1ccc(Cl)cc1 readout_label=log10(IC50) measured_value=0.14
molecule="CC(C(=O)NC12CC(CC#N)(C1)C2)[C@H]1[C@@H]2C[C@@H](Oc3ccnc4ccc(F)cc34)C[C@@H]21 (stereo partly drawn)" readout_label=log10(IC50) measured_value=1.71
molecule="CCC(C(=O)Nc1cnc(C)cn1)[C@H]1[C@@H]2C[C@@H](Oc3ccnc4ccc(F)cc34)C[C@@H]21 (stereo partly drawn)" readout_label=log10(IC50) measured_value=0.16
molecule="CCC(c1nc2cc(C(F)(F)F)ccc2[nH]1)[C@H]1[C@@H]2C[C@@H](Oc3ccnc4ccc(F)cc34)C[C@@H]21 (stereo partly drawn)" readout_label=log10(IC50) measured_value=-0.07
molecule="CC(C(=O)NC12CC(NC(=O)CC#N)(C1)C2)[C@H]1[C@@H]2C[C@@H](Oc3ccnc4ccc(F)cc34)C[C@@H]21 (stereo partly drawn)" readout_label=log10(IC50) measured_value=2.80
molecule="Cc1cc2ccc(NC(=O)C(C)[C@H]3[C@@H]4C[C@@H](n5cnc6cc(F)c(F)cc65)C[C@@H]43)cc2[nH]1 (stereo partly drawn)" readout_label=log10(IC50) measured_value=1.38
molecule="CC(C(=O)Nc1cnc2ccccn12)[C@H]1[C@@H]2C[C@@H](n3cnc4cc(F)c(F)cc43)C[C@@H]21 (stereo partly drawn)" readout_label=log10(IC50) measured_value=2.69
molecule="CC(C(=O)Nc1ccc(Cl)cc1)[C@H]1[C@@H]2C[C@@H](n3cnc4ccc(C#N)cc43)C[C@@H]21 (stereo partly drawn)" readout_label=log10(IC50) measured_value=0.64
molecule="CC(C(=O)Nc1ccc(C(F)(F)F)nc1)[C@H]1[C@@H]2C[C@@H](Oc3ccnc4ccc(F)cc34)C[C@@H]21 (stereo partly drawn)" readout_label=log10(IC50) measured_value=0.67
